Recorded pIC50, one value per entry.
- Target Of Assay: caspase 1 (Homo sapiens)
- Assay Summary: commercial panel of caspases (Reaction Biology Corporation), caspase 1
- Format: biochemical
- Experimental Conditions: read-out: IC50 versus caspase 1
- Source text: Having established that the compounds (3), (4) and (16) are potent inhibitors of caspase 1, the selectivity of these agents was examined. […] Wannamaker, W.; Davies, R.; Namchuk, M.; Pollard, J.; Ford, P.; Ku, G.; Decker, C.; Charifson, P.; Weber, P.; Germann, U. A.; Kuida, K.; Randle, J. C. R. J. Pharmacol. Exp. Ther. 2007, 321, 509-516. […]
pIC50: −log10 of the molar value.
Readout Name: pIC50

>  <Compound>
CC(C)(C)C(NC(=O)c1ccc(N)c(Cl)c1)C(=O)N1CCCC1C(=O)NC(C#N)CC(=O)O (stereo not shown) [NCGC00183434 (4)]

>  <Test Value>
10.64

$$$$
>  <Compound>
CC(C)(C)[C@H](NC(=O)c1ccc(N)c(Cl)c1)C(=O)N1CCC[C@H]1C(=O)N[C@H](C=O)CC(=O)O [VRT-043198 (2b), reference compound]

>  <Test Value>
9.69

$$$$
>  <Compound>
CCOC(=O)CC(C#N)NC(=O)C1CCCN1C(=O)C(NC(=O)c1ccc(N)c(Cl)c1)C(C)(C)C (stereo not shown) [NCGC00185682 (3)]

>  <Test Value>
7.36

$$$$
>  <Compound>
CC(C)(C)C(NC(=O)c1ccc(N)c(Cl)c1)C(=O)N1CCCC1C(=O)NC(C#N)Cc1nnn[nH]1 (stereo not shown) [NCGC00183681 (16)]

>  <Test Value>
8.59

$$$$

====

- Target Of Assay: caspase 8 (Homo sapiens)
- Sequence (Q14790 217-374 limits assumed): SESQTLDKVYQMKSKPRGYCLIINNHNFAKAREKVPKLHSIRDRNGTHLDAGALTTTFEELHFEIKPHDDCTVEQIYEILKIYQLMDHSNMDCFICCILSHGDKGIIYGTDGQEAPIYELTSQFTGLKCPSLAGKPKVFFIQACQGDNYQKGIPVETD
- Sequence (Q14790 385-479 limits assumed): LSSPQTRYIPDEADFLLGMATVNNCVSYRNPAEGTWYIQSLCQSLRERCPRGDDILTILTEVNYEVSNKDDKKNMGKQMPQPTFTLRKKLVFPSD
Readout Name: IC50 (nM)

>  <Compound>
CC(C)(C)[C@H](NC(=O)c1ccc(N)c(Cl)c1)C(=O)N1CCC[C@H]1C(=O)N[C@H](C=O)CC(=O)O [VRT-043198 (2b), reference compound]

>  <Test Value>
3.3

$$$$

====

- Target Of Assay: caspase 1 (Homo sapiens, UniProt P29466)
- Sequence (P29466 120-297 limits assumed): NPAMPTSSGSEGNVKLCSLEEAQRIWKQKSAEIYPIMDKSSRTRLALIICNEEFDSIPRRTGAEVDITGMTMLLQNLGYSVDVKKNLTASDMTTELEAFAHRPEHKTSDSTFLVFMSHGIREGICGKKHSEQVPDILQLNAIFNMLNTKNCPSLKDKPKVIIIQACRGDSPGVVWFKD
- Sequence (P29466 317-404 limits assumed): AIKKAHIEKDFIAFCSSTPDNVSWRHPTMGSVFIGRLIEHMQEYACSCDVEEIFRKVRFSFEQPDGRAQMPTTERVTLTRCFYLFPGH
- Assay Summary: caspase 1 inhibition assay with caged fluorescent peptide substrate (Ac-LEHD-AMC)
- Type: biochemical
- Experimental Conditions: 2 nM enzyme, 20 minutes at room temperature, fluorescence detection, read-out: IC50 versus caspase 1
Recorded IC50, one value per entry.

>  <Compound>
CCOC(=O)CC(C#N)NC(=O)C1CCCN1C(=O)C(NC(=O)c1ccc(N)c(Cl)c1)C(C)(C)C (stereo not shown)

>  <IC50>
145 nM

$$$$
>  <Compound>
CC(C)(C)[C@H](NC(=O)c1ccc(N)c(Cl)c1)C(=O)N1CCC[C@H]1C(=O)N[C@H](C=O)CC(=O)O [VRT-043198 (2b), reference compound]

>  <IC50>
11.5 nM

$$$$
>  <Compound>
CC(C)(C)C(NC(=O)c1ccc(N)c(Cl)c1)C(=O)N1CCCC1C(=O)NC(C#N)Cc1nnn[nH]1 (stereo not shown)

>  <IC50>
20.4 nM

$$$$
>  <Compound>
CC(C)(C)C(NC(=O)c1ccc(N)c(Cl)c1)C(=O)N1CCCC1C(=O)NC(C#N)CC(=O)O (stereo not shown)

>  <IC50>
0.316 nM

$$$$

====

- Target Of Assay: caspase 14 (Homo sapiens, UniProt P31944)
- Sequence (P31944 6-146 limits assumed): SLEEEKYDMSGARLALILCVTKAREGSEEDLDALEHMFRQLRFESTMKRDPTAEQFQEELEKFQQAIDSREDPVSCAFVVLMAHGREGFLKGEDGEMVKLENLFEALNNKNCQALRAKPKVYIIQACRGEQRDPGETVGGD
- Sequence (P31944 153-242 limits assumed): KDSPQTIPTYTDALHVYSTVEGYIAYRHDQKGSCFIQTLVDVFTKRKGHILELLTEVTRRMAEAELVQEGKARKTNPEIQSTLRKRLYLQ
pIC50: −log10 of the molar value.

>  <Molecule>
CC(C)(C)[C@H](NC(=O)c1ccc(N)c(Cl)c1)C(=O)N1CCC[C@H]1C(=O)N[C@H](C=O)CC(=O)O [VRT-043198 (2b), reference compound]

>  <pIC50>
7.23

$$$$

====

- Target Of Assay: caspase 4 (Homo sapiens, UniProt P49662)
- Sequence (P49662 81-270 limits assumed): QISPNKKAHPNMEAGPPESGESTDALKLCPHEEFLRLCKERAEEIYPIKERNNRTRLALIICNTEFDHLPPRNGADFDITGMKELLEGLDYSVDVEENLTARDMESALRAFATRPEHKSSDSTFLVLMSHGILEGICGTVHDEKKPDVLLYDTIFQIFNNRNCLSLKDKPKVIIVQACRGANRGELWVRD
- Sequence (P49662 290-377 limits assumed): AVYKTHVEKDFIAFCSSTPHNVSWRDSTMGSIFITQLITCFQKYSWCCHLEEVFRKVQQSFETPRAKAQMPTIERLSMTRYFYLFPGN
pIC50: −log10 of the molar value.

>  <Compound>
CC(C)(C)[C@H](NC(=O)c1ccc(N)c(Cl)c1)C(=O)N1CCC[C@H]1C(=O)N[C@H](C=O)CC(=O)O [VRT-043198 (2b), reference compound]

>  <pIC50>
7.84

$$$$
